Test system: SNB-75 CNS
testDescription: NCI tumour cell line growth inhibition, 48 h; in the data active = GI50 below about 0.43 µM; inactive = the rest
Select the matching outcome among 1 (active), -1 (inactive)

// known answers, use as guide
| compound | assayTarget | group |
| --- | --- | --- |
| CC(C)=CC(=O)N[C@H]1CC[C@]2(C)C3CC[C@]4(C)C(C(C)N(C)C)=CCC4C3CCC2[C@H]1O (stereo partly drawn) | SNB-75 CNS | -1 |
| CC(=O)O[C@H]1C(=O)[C@@]2(C)[C@H]([C@H](OC(=O)c3ccccc3)[C@]3(O)C[C@H](OC(=O)[C@H](OC(=O)OC[C@H]4COC(C)(C)O4)[C@@H](NC(=O)c4ccccc4)c4ccccc4)C(C)=C1C3(C)C)[C@]1(OC(C)=O)CO[C@@H]1C[C@@H]2O | SNB-75 CNS | 1 |
| COC(=O)c1c2c(c(C)[n+]([O-])c1C)C(=O)C=C(NCc1cccc(Cl)c1)C2=O | SNB-75 CNS | -1 |
| COC1=CC(c2ccc[nH]2)=N/C1=C\c1[nH]c(C)c(CC(=O)OCc2ccccc2)c1C | SNB-75 CNS | 1 |
| O=C(/C=C1\C(=O)N(Cc2ccccc2)c2ccccc21)c1ccc(OCCN2CCCCC2)cc1 | SNB-75 CNS | -1 |

How was Cc1ccc2c(c1)C(=O)c1c-2c(OCCCN(C)C)nc2ccccc12 classified in this test?
-1

How was C[n+]1c2ccccc2nc2ccccc21 classified in this test?
-1

How was COC(=O)CCNc1c2ccccc2nc2cccc([N+](=O)[O-])c12 classified in this test?
1
